# EXPERIMENTAL TARGET: human GLP-1 receptor (human, UniProt P43220 24-463)
# PROCEDURE SUMMARY: cell-based or functional assay
Starred links: 1 amine or outer side, 2 acyl side, 3 side chain; linkers in the order of their positions; H or OH if unused. Non-standard residues stand in square brackets, D forms with d. Groups on a side chain read outwards from the residue. *: point of attachment. C20 diacid = O=C(O)CCCCCCCCCCCCCCCCCCC(=O)*; C18 diacid = O=C(O)CCCCCCCCCCCCCCCCC(=O)*; γGlu = O=C(O)[C@H](CCC(=O)[*:2])N[*:1]; AEEA = NCCOCCOCC(=O)O; Aib = CC(C)(N)C(=O)O
Listing: Human GLP-1R potency [EC50 (pM)] of selected binders
RECORDED METRIC: Human GLP-1R potency [EC50 (pM)]

1. Compound 0661 (peptide) peptide: H[Aib]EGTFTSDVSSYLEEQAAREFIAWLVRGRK([AEEA-AEEA-AEEA-γGlu-C18 diacid])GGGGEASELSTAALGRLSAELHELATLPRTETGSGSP-NH2	2.8
2. Compound 0633 (peptide) peptide: H[Aib]EGTFTSDVSSYLEEQAARK([γGlu-γGlu-γGlu-γGlu-C20 diacid])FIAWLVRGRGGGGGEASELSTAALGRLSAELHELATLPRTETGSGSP-NH2	28.2
